Target: T1, EsCas13d, nuclease-dead (Eubacterium siraeum, UniProt B0MS50, R295A;H300A;R849A;H854A)
T1 sequence: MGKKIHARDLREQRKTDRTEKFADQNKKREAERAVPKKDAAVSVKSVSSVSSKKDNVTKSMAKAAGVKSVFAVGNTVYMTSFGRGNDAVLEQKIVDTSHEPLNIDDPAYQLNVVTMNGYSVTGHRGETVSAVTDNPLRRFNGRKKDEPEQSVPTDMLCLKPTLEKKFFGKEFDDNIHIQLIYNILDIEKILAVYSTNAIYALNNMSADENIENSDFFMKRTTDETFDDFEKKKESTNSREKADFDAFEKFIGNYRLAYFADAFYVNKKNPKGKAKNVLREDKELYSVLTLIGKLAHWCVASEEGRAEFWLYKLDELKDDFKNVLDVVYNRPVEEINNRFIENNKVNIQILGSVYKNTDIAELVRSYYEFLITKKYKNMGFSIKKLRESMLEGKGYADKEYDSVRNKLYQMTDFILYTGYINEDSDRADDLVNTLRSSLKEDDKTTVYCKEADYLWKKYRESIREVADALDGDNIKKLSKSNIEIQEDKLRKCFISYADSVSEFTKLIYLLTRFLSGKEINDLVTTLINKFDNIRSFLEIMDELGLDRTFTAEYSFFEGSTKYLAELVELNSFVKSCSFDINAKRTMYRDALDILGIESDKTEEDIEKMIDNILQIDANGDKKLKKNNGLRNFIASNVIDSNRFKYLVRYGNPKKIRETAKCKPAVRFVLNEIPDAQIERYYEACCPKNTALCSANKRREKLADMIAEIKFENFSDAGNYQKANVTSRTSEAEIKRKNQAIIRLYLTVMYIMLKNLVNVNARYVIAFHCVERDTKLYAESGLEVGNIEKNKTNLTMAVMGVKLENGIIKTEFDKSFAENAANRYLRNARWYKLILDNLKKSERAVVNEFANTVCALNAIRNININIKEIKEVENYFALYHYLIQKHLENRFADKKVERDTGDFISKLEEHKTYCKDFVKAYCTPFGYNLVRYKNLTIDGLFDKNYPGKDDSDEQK
Assay: crRNA (strand 1, pre-loaded); Mg2+; 40 mM Tris-HCl pH 7.5, 150 mM NaCl, 6 mM MgCl2, 1 mM DTT, 0.1% Tween-20, 0.2 mg/ml BSA; 25 C; 10 min per concentration, then washed
Conditions: tags: His6-TwinStrep-SUMO cleaved; N-terminal SNAP kept (SNAP-Surface 488); label: 3' end held by stalled T7 RNA polymerase
Endpoint name: log10(Kd) (log10 of the value in nM)

target 2 MT 5'PFS CUG 3'PFS CUG (mixed) RNA 1: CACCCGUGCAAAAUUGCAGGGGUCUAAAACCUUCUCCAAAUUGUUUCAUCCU RNA 2: GGGAAUGGAUCCACAUCUACGAAUUCCUGAGGAUGAAACAAUUUGGAGAAGCUGAGAUCGGAAGAGCACACGU: 0.43
target 1 insG 3' of 21,insA 3' of 8 (mixed) RNA 1: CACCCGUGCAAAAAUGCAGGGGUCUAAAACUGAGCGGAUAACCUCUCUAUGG RNA 2: GGGAAUGGAUCCACAUCUACGAAUUCGUACCGAUAGAGAGGUUAUACCGCUCACCGAGAUCGGAAGAGCACACGU: 1.81
target 1 insG 3' of 18,insU 3' of 7 (mixed) RNA 1: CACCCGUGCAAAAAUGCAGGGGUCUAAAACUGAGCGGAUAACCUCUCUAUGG RNA 2: GGGAAUGGAUCCACAUCUACGAAUUCGUACCAUAGGAGAGGUUAUCUCGCUCACCGAGAUCGGAAGAGCACACGU: 1.83
target 1 insG 3' of 11,insU 3' of 6 (mixed) RNA 1: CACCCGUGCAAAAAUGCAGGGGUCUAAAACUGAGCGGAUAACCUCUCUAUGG RNA 2: GGGAAUGGAUCCACAUCUACGAAUUCGUACCAUAGAGAGGUGUAUCCUGCUCACCGAGAUCGGAAGAGCACACGU: 1.79
target 1 MT 5'PFS UGU 3'PFS ACU (mixed) RNA 1: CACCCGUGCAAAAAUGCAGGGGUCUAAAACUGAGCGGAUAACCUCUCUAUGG RNA 2: GGGAAUGGAUCCACAUCUACGAAUUCUGUCCAUAGAGAGGUUAUCCGCUCAACUAGAUCGGAAGAGCACACGU: 1.54
target 1 A1U,U11A (mixed) RNA 1: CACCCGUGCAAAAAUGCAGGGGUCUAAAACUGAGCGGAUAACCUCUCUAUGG RNA 2: GGGAAUGGAUCCACAUCUACGAAUUCGUACCAUAGAGAGGAUAUCCGCUCUCCGAGAUCGGAAGAGCACACGU: 1.58
target 1 C7G,G15A (mixed) RNA 1: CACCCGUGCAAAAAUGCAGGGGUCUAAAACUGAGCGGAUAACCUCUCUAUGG RNA 2: GGGAAUGGAUCCACAUCUACGAAUUCGUACCAUAGAAAGGUUAUGCGCUCACCGAGAUCGGAAGAGCACACGU: 1.35
